Cited source for all entries: ChEMBL document CHEMBL1201862

# System: HT-29
# protocol-details: NCI tumour cell line growth inhibition, 48 h
Activity calls are given as the source filed them. Rule as the data show it: active = GI50 up to about 1.1 µM and inactive = higher.
# GI50 listing for each entry below

| compound | tested-on | metric | data-value |
| --- | --- | --- | --- |
| CC(=O)OC1CN2CCC1CC2 (stereo not given) [ACECLIDINE] | HT-29 | GI50 | > 100 µM (inactive) |
| CCOC(=O)C(C)(C)Oc1ccc(Cl)cc1 [CLOFIBRATE] | HT-29 | GI50 | 159 µM (inactive) |
| S=P(c1ccccc1)(c1ccccc1)C1(C2(P(=S)(c3ccccc3)c3ccccc3)CC2)CC1 | HT-29 | GI50 | > 100 µM (inactive) |
| COC(=O)C1(CCCCl)CCCN1C(=O)OC(C)(C)C (stereo not given) | HT-29 | GI50 | > 100 µM (inactive) |
| N=c1oc2cc(O)ccc2cc1C(=O)NCc1ccccc1 | HT-29 | GI50 | 18.8 µM (inactive) |

Consider now this further compound.
Item under review: `O=C(CCc1ccc(O)c(O)c1)NCCc1cc(O)c(O)c(O)c1` . Reported GI50? 17.9 µM (inactive)

---

# Test system: SW-620
# protocol-details: NCI tumour cell line growth inhibition, 48 h
Activity calls are given as the source filed them. Rule as the data show it: active = GI50 up to about 1.1 µM and inactive = higher.
Pick one and only one: 1.0 for active, 0.0 for inactive

Recorded results for 5 molecules are shown here.
| molecule | tested-on | label-value |
| --- | --- | --- |
| COc1ccc(C2CCc3nc4nc(N)nc(N)c4cc3C2)cc1 (centres undefined) | SW-620 | 0.0 |
| Cc1ccc(S(=O)(=O)c2ccc([N+](=O)[O-])o2)cc1 | SW-620 | 1.0 |
| O=C(CN1C(=O)c2ccccc2C1=O)NC1(C(=O)O)CCCC1 | SW-620 | 0.0 |
| CCOC(=O)C1Oc2ccc([N+](=O)[O-])c3c2C1(O)CCC3 (centres undefined) | SW-620 | 0.0 |
| OC(c1cccnc1)C(F)(F)c1nc2ccccc2o1 (centres undefined) | SW-620 | 0.0 |

Called result for CC1CCC(O)C(C(O)CC2CC(=O)N(C)C(=O)C2)C1 (centres undefined) 0.0

Called result for COc1cc(/C=C2\NC(=O)C(Cc3cc(OC)c(OC)c(C)c3OC)N(C(C)=O)C2=O)c(OC)c(C)c1OC (centres undefined) 0.0

Called result for `Nc1nc(NCC2(CO)CC2)cc(=O)[nH]1` 0.0

Called result for NC1=NN(c2ccccc2)C2(O)c3ccncc3C3=NN(c4ccccc4)C(=O)C132 (centres undefined) 0.0

Called result for `CC[C@H]1C=CCC[C@@]2(C[C@@H]3CC[C@H]4[C@H](C(=O)OCCCCCCCCCCCCCCCC(=O)N(CCCN)C[C@@H](O)CCN)[C@]5(CCC[C@@H](C)O5)NC(=[N+]34)N2)O1` 1.0

Called result for CC(=O)OC1CN2CCC1CC2 (centres undefined) 0.0

Called result for O/N=C1/C(=C/c2ccccc2)CCCC1C(NO)c1ccccc1 (centres undefined) 0.0

Called result for `Cc1ccc2c(c1)-c1c(C#N)c(N)nc(-c3ccc(Cl)cc3)c1CCS2(=O)=O` 0.0

Called result for `CC(=O)c1cccc(NCn2nnc3ccccc32)c1` 0.0

Called result for `O=C1OC(c2ccccc2)=N/C1=C\c1ccc(Cl)cc1` 0.0
